Assayed system: T1, His-tagged cynomolgus monkey TIGIT (Acro Biosystems #TIT-05223) (cynomolgus monkey, UniProt A0A7N9I9V4 89-209)
T1 construct: Bought protein; also called cyno TIGIT; cynomolgus TIGIT; not shown: His tag
T1 sequence (A0A7N9I9V4 entry or part of it): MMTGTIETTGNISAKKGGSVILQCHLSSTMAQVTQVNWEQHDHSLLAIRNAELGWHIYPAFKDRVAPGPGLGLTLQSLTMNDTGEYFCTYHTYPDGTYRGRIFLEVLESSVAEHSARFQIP
Protocol: SPR (Carterra LSA), scFv-Fc captured, His-TIGIT analyte
Description: Binding affinities of anti-TIGIT antibodies to human, cyno, and murine TIGIT were measured by Surface Plasmon Resonance (SPR) on a Carterra LSA instrument. Goat anti-human Fc antibody was amine coupled to a HC30M chip. ScFv-Fc supernatants were diluted 30-fold with HBSTE and were captured by the anti-human Fc coupled HC30M chip. A 1:2 dilution series of his-tagged human TIGIT, starting at 400 nM, was injected onto the chip for binding. […] Data were analyzed using the Carterra™ Kinetics software.
Measured property: Kd (nM)

# Binder, Measured property, Measure unit, Test result
data = [
    ("43586p1.2.B2 (scFv, V domains shown) VH: EMQLLESGGGLVQPGGSLRLSCAASGFTFDDYVMSWVRQAPGKGLEWVSLINWNGDKTYYADSVKGRFTISRDNSKNTLYLQMNSLRAEDTAIYYCAKHWIVFQYGMDVWGQGTTVTVSS VL: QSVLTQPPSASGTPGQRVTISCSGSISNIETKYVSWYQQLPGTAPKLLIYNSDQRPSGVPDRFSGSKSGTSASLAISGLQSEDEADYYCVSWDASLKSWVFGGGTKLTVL", "Kd", "nM", 14.3),
    ("43586p2.G02 (scFv, V domains shown) VH: EVQLLESGGGLVQPGGSLRLSCAASGFTFSSYWMNWVRQAPGKGLEWVSGIYSGGTTYYADSVKGRFTISRDNSKNTLYLQMNSLRAEDTAVYYCTRENWKENNAMDVWGQGTTVTVSS VL: QSVLTQPPSASGTPGQRVTISCSGVTSNIASYHVYWYQQLPGTAPKLLIYLNSQRPSGVPDRFSASKSGTSASLAISGLQSEDEADYYCATWDGSQNGWVFGGGTKLTVL", "Kd", "nM", 2.37),
    ("43352p1.H8 (scFv, V domains shown) VH: DVQLVESGGGVVRPGESLRLSCAASGFNFSTYAMNWVRQAPGEGLEWVSGISGRSSGDTTYYADSVRGWFTVSRDNSKNTLYLQMSSLRAEDTAVYYCARETWIRGYFDYWGLGTLVTVSS VL: QSVLTQPPSASGTPGQRVTISCSGSRSNLGNNLVYWYQQLPGTAPKLLIYFNNERPSGVPDRFSGSKSGTSASLAISGVQSEDEADYYCATWDDSLNGWVFGGGTKLTVL", "Kd", "nM", 120),
]
